Target: T1, peptide immunogen ANYCSGESEFVFLQKYPHTHLVHQA (human)
T1 construct: For immunization it was conjugated to KLH and a helper T-cell peptide; also called immunogenic peptide; immunogenic polypeptide
T1 peptide: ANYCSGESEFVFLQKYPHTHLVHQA
Test: ELISA, peptide coated at 2 ug/ml, Fab 0.016-10 ug/ml
OUTCOME_MEASURE: binding result

>>> val("Fab 15 (Fab, V domains shown, Mouse Fab, kappa light chain; also called anti-myostatin Fab 15) VH: QVTLKESGPGILQSSQTLSLTCSLSGFSLRTSGMSVSWIRQSSGKGLEWLAHIYWDDDKRYNPSLRNRLTISKDTLRNQVFLKITSVGTADTATYYCARRAITTVIGGGTMDYWGQGTSVTVSS VL: QIVLTQSPAIMSASPGEEVTMTCSASSSINYMHWYQQKSGTSPKRWIYDTSKLASGVPARFSGSGSGTSYSLTISSMEAEDAATYYCQQWNSNPLTFGGGTKLELKR")
"binds"
>>> val("Fab 5 (Fab, V domains shown, Mouse Fab, kappa light chain; also called anti-myostatin Fab 5) VH: QVTLKESGPGILQSSQTLSLTCSFSGFSLSTSGMSVSWIRQSSGKGLEWLAHIYWDDDKRYNPSLRSRLTISKDTSRNQVFLKITSVDTADTATYYCARRGITTVLGGGTMDYWGQGTSVTVSS VL: QVVLTQSPAIMSASLGEKVTMTCSASSSVHYMHWYQQKSGTSPKRWIYDTSKLASGVPARFSGSGSGTSYSLTISSMEAEDAATYYCQQWSSNPLTFGAGTKLELKR")
"binds"
